Tested on: LTB4 production in murine blood (LTA4H)
Assay: LTB4 production by calcium ionophore-stimulated murine blood for LTA4H inhibitor activity
Type: cell-based, CD-1 mice
Settings: Mus musculus; murine blood diluted 1 in 15, A23187 stimulated; single determination or average; mark after value = form tested: ′ free base, ″ hydrochloride, ^ formate; read-out: IC50
Structures can show the parent of a compound that is named as a salt.
Property Measured: IC50 (nM)

Some entries whose results are on file:
Compound: CC(=O)N(C1CC1)C1CCN(Cc2coc3cc(Oc4nc5ncccc5s4)ccc23)CC1
Observed: 30
//
Compound: NC(=O)C1CCN(C(=O)c2coc3cc(Oc4nc5ncccc5s4)ccc23)CC1
Observed: 110

a. COC1CCN(Cc2coc3cc(Oc4nc5ncccc5s4)ccc23)CC1 [Example 271, formate]
b. CN(Cc1ccccc1)Cc1c[nH]c2cc(Oc3nc4ccccc4s3)ccc12
Of a and b , which carries the smaller reported IC50 figure? Refer to your chosen item by its label in the answer.
a

I. c1ccc2sc(Oc3ccc4c(CN5C[C@@H]6C[C@H]5CN6)c[nH]c4c3)nc2c1
II. c1ccc(N2CCN(Cc3coc4cc(Oc5nc6ncccc6s5)ccc34)CC2)nc1 [Example 288, formate]
III. O=C(CO)N1CC2CN(Cc3coc4cc(Oc5nc6ncccc6s5)ccc34)CC2C1 (centres unmarked)
IV. NC1CCN(Cc2c[nH]c3cc(Oc4nc5ccccc5s4)ccc23)CC1
V. NC(=O)C1CCN(Cc2coc3cc(Oc4nc5ncccc5s4)ccc23)CC1
Put the compounds in ascending order of IC50. Labels, ranked as asked.
V, III, II, I, IV
(V: 25 nM, III: 68 nM, II: 170 nM, I: 411 nM, IV: 739 nM)

P. O=C(O)C1CCN(CCc2coc3cc(Oc4nc5ccccc5s4)ccc23)CC1
Q. OC1CCN(Cc2coc3cc(Oc4nc5ncccc5s4)ccc23)CC1
Of P and Q , which carries the smaller reported IC50 figure? Refer to your chosen item by its label in the answer.
Q

P. Cc1cc(CC(=O)NCc2coc3cc(Oc4nc5ncccc5s4)ccc23)on1
Q. CCN(CC)C1CCN(Cc2coc3cc(Oc4nc5ncccc5s4)ccc23)C1 (centres unmarked)
Of P and Q , which carries the smaller reported IC50 figure? Refer to your chosen item by its label in the answer.
Q

A. c1csc(CNCc2coc3cc(Oc4nc5ncccc5s4)ccc23)c1
B. CC(=O)N1C[C@@H]2C[C@H]1CN2Cc1cc2cc(Oc3nc4ncccc4s3)ccc2o1
C. CC(C)(O)C1CCN(Cc2coc3cc(Oc4nc5ncccc5s4)ccc23)CC1
D. O=C(c1coc2cc(Oc3nc4ncccc4s3)ccc12)N1CCC(c2ccccc2)CC1
hey, can you rank those compounds up there by IC50? biggest number first please Labels, ranked as asked.
D, A, C, B

====

Target: recombinant human LTA4 hydrolase (rhLTA4H) (Homo sapiens, UniProt P09960)
Construct: made in house; host or cells: Spodoptera frugiperda (Sf-9) cells, baculovirus (pFastBac1)
Sequence (P09960 whole entry): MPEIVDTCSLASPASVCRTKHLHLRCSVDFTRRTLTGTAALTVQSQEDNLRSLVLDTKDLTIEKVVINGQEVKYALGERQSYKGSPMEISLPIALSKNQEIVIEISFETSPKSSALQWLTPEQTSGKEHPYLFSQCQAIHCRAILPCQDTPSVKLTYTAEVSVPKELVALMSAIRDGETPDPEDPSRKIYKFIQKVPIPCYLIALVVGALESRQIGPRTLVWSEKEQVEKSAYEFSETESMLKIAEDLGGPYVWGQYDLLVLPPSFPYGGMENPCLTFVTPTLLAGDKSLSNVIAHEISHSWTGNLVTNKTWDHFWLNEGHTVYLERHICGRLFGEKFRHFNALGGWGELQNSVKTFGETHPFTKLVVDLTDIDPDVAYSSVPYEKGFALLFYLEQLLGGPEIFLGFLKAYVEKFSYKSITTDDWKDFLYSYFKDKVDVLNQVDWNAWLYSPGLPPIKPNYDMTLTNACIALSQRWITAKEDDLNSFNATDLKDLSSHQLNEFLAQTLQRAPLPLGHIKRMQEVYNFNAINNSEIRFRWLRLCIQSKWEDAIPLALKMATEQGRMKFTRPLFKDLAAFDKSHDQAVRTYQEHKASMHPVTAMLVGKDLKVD
Assay: Recombinant human LTA4 hydrolase assay for LTA4 hydrolase inhibitor activity
Assay type: biochemical
Settings: rhLTA4H, LTB4 by immunoassay; single determination or average of two or more; mark after value = form tested: ′ free base, ″ hydrochloride, ^ formate; read-out: IC50
Property Measured: IC50 (nM)

Compound: CN(C)CCCN(C)C(=O)c1coc2cc(Oc3nc4ncccc4s3)ccc12
IC50 [nM]: 150

A. NC(=O)C1CCN(Cc2cc3cc(Oc4nc5ccccc5s4)ccc3o2)CC1
B. NC(=O)C1CCN(Cc2cc3cc(Oc4nc5ncccc5s4)ccc3o2)CC1
C. O=C(c1coc2cc(Oc3nc4ncccc4s3)ccc12)N1CCC2CCCCC2C1 (centres unmarked)
D. c1ccc(CNCc2coc3cc(Oc4nc5ncccc5s4)ccc23)cc1
E. O=C1Cc2ccc(C(F)(F)F)cc2N1Cc1coc2cc(Oc3nc4ncccc4s3)ccc12
hey, can you rank those compounds up there by IC50? biggest number first please Labels, ranked as asked.
C, E, A, D, B
